Test system: HEK-293T
RUN_DESCRIPTION: Multiplex assay against HEK293T
Type: toxicity, cell-based
CONDITION_PARAMETERS: human, 24 h, 10 µM, compound concentration 10 uM, replicate 2
Measured Population Mitochondria Different-Phenotype (%), listed per entry for reference.
# number then unit; no other words

Field: example entries. Status: answers known.
{"columns": ["COMPOUND", "OBSERVED"],
 "data": [
  ["CCCCC(=O)N(Cc1ccc(-c2ccccc2-c2nnn[nH]2)cc1)[C@H](C(=O)O)C(C)C", "30%"],
  ["CCCCC1=NC2(CCCC2)C(=O)N1Cc1ccc(-c2ccccc2-c2nnn[nH]2)cc1 [IRBESARTAN]", "49%"],
  ["Cc1sc2c(c1C)C(c1ccc(Cl)cc1)=N[C@@H](CC(=O)NCCCCCCCCNC(=O)COc1cccc3c1C(=O)N(C1CCC(=O)NC1=O)C3=O)c1nnc(C)n1-2 (stereo not given in full)", "86%"],
  ["Cl.NCCc1ccc(O)c(O)c1 [DOPAMINE HYDROCHLORIDE]", "40%"]
]}

Please turn your attention to the following entry.
Challenge: Identify Population Mitochondria Different-Phenotype (%) associated with the compound CC(C)(C)c1cc(NC(=O)Nc2ccc(-c3cn4c(n3)sc3cc(OCCN5CCOCC5)ccc34)cc2)no1 [QUIZARTINIB]
Response given: 75%

---

System: U2OS
RUN_DESCRIPTION: Multiplex assay against U2OS
Format: toxicity, cell-based
CONDITION_PARAMETERS: human, 48 h, 10 µM, compound concentration 10 uM, replicate 1
Quick rule for you: Population Mitotic Cells (%) at 10% or higher means 1, lower means -1.

{"columns": ["COMPOUND", "TESTED_ON", "QUALITATIVE_LABEL"],
 "data": [
  ["Cc1c(CC(=O)O)c2cccnc2n1Cc1ccc(S(C)(=O)=O)cc1C(F)(F)F [FEVIPIPRANT]", "U2OS", -1]
]}

Challenge: Given the entry CN[C@@H](C)C(=O)N[C@H](C(=O)N1CCC[C@H]1C(=O)Nc1snnc1-c1ccccc1)C1CCCCC1 [GDC-0152] , answer whether its Population Mitotic Cells (%) meets or surpasses 10%.
Response given: -1

Challenge: Given the entry C[C@H](N)COC(=O)[C@@H](CCCCN)NC(=O)Cc1c(-c2ccc3ccccc3c2)[nH]c2c1ccc1ccccc12 , answer whether its Population Mitotic Cells (%) meets or surpasses 10%.
Response given: -1

Challenge: Given the entry Cc1cnc(-c2cc(N3CCN(C(=O)CCS(C)(=O)=O)CC3)ncc2Cl)c(C)c1 , answer whether its Population Mitotic Cells (%) meets or surpasses 10%.
Response given: -1

Challenge: Given the entry O=C(NCCN1CCC(n2c(=O)[nH]c3cc(Cl)ccc32)CC1)c1ccc(F)cc1 [HALOPEMIDE] , answer whether its Population Mitotic Cells (%) meets or surpasses 10%.
Response given: 1

Challenge: Given the entry COc1cccc2c1c(NS(=O)(=O)c1ccc(Cl)s1)nn2Cc1cccc(CNC(=O)C(C)(C)O)c1 , answer whether its Population Mitotic Cells (%) meets or surpasses 10%.
Response given: -1

Challenge: Given the entry CC(C)c1noc(N2CCC(COc3ccc(-c4ccc(S(C)(=O)=O)cc4)nc3)CC2)n1 [GSK-1292263] , answer whether its Population Mitotic Cells (%) meets or surpasses 10%.
Response given: 1

Challenge: Given the entry CCCCC(=O)N(Cc1ccc(-c2ccccc2-c2nnn[nH]2)cc1)[C@H](C(=O)O)C(C)C , answer whether its Population Mitotic Cells (%) meets or surpasses 10%.
Response given: 1

Challenge: Given the entry Cc1cccc(NC(=O)CN2CCC(c3ccccn3)CC2)c1.Cl.Cl , answer whether its Population Mitotic Cells (%) meets or surpasses 10%.
Response given: -1
